So I've got a bunch of compounds here, and I need their log10 of concentration at 2 h values.
Protocol Description: Pharmacokinetic screening in rats (plasma and brain)
Experimental Setup: male, Sprague Dawley, rat, plasma, po, 5 mg/kg, Plasma - 2 hours (ng/mL), 5 mg/kg PO, 2 hour time point
Recall that a logarithmic scale is used here: each number is log10 of concentration at 2 h in ng/mL.

Form field log10 of concentration at 2 h, entry Cc1ccc(CN(CCC(=O)O)c2nc(C3(CC(C)C)CCCC3)cs2)s1 : 1.70

Form field log10 of concentration at 2 h, entry CCc1ccc(CN(CCC(=O)O)c2nc(C3CCCCC3)cs2)s1 : 2.42

Form field log10 of concentration at 2 h, entry Cc1ccc(CN(CCC(=O)O)c2nc([C@H]3CC[C@H](c4ccccc4)CC3)cs2)s1 : 3.92

Form field log10 of concentration at 2 h, entry CCc1ccc(CN(CCC(=O)O)c2nc(C3CCC(C)(C)CC3)cs2)s1 : 3.89

Form field log10 of concentration at 2 h, entry CCc1ccc(CN(CCC(=O)O)c2nc(CC3CCCCC3)cs2)s1 : 3.42

Form field log10 of concentration at 2 h, entry Cc1cc(CN(CCC(=O)O)c2nc(C3CCC(C(C)C)CC3)cs2)c(C)s1 (centres unmarked) : 3.80

Form field log10 of concentration at 2 h, entry Cc1ccc(CN(CCC(=O)[O-])c2nc([C@H]3CC[C@H](C(C)(C)C)CC3)cs2)s1.[Na+] : 3.81

Form field log10 of concentration at 2 h, entry CCc1ccc(CN(CCC(=O)[O-])c2nc(C3(C)CCC(C)CC3)cs2)s1.[Na+] (centres unmarked) : 3.32

Ref: patent US8563742B2
